// values below are reported t1/2 Buffer pH 7.4
measurement_name: t1/2 Buffer pH 7.4 (min)

{"columns": ["smiles_entry", "reported"],
 "data": [
  ["Nc1ccn([C@@H]2O[C@H](COC(=O)[C@@H](N)Cc3ccccc3)[C@@H](OC(=O)[C@@H](N)Cc3ccccc3)C2(F)F)c(=O)n1", 38.0],
  ["CC(C)[C@H](N)C(=O)O[C@@H]1[C@@H](CO)O[C@@H](n2ccc(N)nc2=O)C1(F)F", 64.0],
  ["Nc1ccn([C@@H]2O[C@H](CO)[C@@H](OC(=O)[C@@H](N)Cc3ccccc3)C2(F)F)c(=O)n1", 39.0]
]}

* * *

target: HPEPT1 (Homo sapiens); details: ratio of uptake in hPepT1 cells versus control cells
Sequence (P46059 whole entry): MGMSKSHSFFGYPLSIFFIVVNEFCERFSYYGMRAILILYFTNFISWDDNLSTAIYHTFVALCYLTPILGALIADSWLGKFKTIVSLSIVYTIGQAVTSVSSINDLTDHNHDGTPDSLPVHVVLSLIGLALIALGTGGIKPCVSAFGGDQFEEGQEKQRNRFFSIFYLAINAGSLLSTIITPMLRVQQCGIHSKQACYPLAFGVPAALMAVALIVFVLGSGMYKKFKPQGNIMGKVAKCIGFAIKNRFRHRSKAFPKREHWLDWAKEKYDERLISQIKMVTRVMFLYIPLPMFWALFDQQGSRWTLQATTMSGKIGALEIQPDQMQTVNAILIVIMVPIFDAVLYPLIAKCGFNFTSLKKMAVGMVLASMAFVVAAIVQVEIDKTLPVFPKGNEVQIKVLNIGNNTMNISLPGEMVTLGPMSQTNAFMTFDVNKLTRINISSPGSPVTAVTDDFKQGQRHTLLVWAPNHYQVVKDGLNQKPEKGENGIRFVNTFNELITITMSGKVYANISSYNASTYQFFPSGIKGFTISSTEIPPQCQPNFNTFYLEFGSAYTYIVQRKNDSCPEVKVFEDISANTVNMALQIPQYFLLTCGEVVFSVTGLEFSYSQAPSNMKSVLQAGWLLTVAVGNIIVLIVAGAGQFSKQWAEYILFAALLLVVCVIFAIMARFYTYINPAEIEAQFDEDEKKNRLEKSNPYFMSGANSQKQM
// values below are reported hPepT1/Control

{"columns": ["compound", "hPepT1/Control"],
 "data": [
  ["CC(C)[C@@H](N)C(=O)O[C@@H]1[C@@H](CO)O[C@@H](n2ccc(N)nc2=O)C1(F)F [3′-O-D-valyl Gemcitabine]", 1.06],
  ["CC(C)[C@H](N)C(=O)OC[C@H]1O[C@@H](n2ccc(N)nc2=O)C(F)(F)[C@@H]1O [5′-O-L-valyl Gemcitabine]", 11.25],
  ["CC[C@H](C)[C@H](N)C(=O)OC[C@H]1O[C@@H](n2ccc(N)nc2=O)C(F)(F)[C@@H]1OC(=O)[C@@H](N)[C@@H](C)CC [3′,5′-di-O-L-isoleucyl gemcitabine]", 1.06],
  ["CC(C)[C@@H](N)C(=O)OC[C@H]1O[C@@H](n2ccc(N)nc2=O)C(F)(F)[C@@H]1OC(=O)[C@H](N)C(C)C [3′,5′-di-O-D-valyl gemcitabine]", 1.13],
  ["CC(C)[C@@H](N)C(=O)OC[C@H]1O[C@@H](n2ccc(N)nc2=O)C(F)(F)[C@@H]1O [5′-O-D-valyl Gemcitabine]", 1.58],
  ["CC(C)C(N)C(=O)OC[C@H]1O[C@@H](n2cc(F)c(=O)[nH]c2=O)C[C@@H]1OC(=O)C(N)C(C)C (stereo partly drawn) [3′,5′-di-O-valyl-Floxuridine]", 5.18]
]}

* * *

assay: in vitro; conditions: human, Caco-2

{"columns": ["smiles_entry", "unit_text", "half-life"],
 "data": [
  ["CC(C)[C@H](N)C(=O)OCCOCn1cnc2c(=O)[nH]c(N)nc21", "min", 32.7]
]}

* * *

measurement_name: t1/2 Human plasma (min)

{"columns": ["compound", "measurement_name", "unit_text", "reported"],
 "data": [
  ["CC(C)[C@@H](N)C(=O)O[C@@H]1[C@@H](CO)O[C@@H](n2ccc(N)nc2=O)C1(F)F [3′-O-D-valyl Gemcitabine]", "t1/2 Human plasma", "min", 5.99],
  ["CC(C)[C@H](N)C(=O)OC[C@H]1O[C@@H](n2ccc(N)nc2=O)C(F)(F)[C@@H]1O [5′-O-L-valyl Gemcitabine]", "t1/2 Human plasma", "min", 56.4],
  ["Nc1ccn([C@@H]2O[C@H](COC(=O)[C@H](N)Cc3ccccc3)[C@@H](O)C2(F)F)c(=O)n1 [5′-O-D-phenylalanyl Gemcitabine]", "t1/2 Human plasma", "min", 34.8]
]}

* * *

// values below are reported t1/2 Human plasma
measurement_name: t1/2 Human plasma (min)

{"columns": ["smiles_entry", "unit_text", "reported"],
 "data": [
  ["Nc1ccn([C@@H]2O[C@H](COC(=O)[C@H](N)Cc3ccccc3)[C@@H](OC(=O)[C@H](N)Cc3ccccc3)C2(F)F)c(=O)n1", "min", 2.4],
  ["Nc1ccn([C@@H]2O[C@H](CO)[C@@H](OC(=O)[C@H](N)Cc3ccccc3)C2(F)F)c(=O)n1", "min", 7.7],
  ["CC[C@H](C)[C@H](N)C(=O)OC[C@H]1O[C@@H](n2ccc(N)nc2=O)C(F)(F)[C@@H]1OC(=O)[C@@H](N)[C@@H](C)CC", "min", 2.64]
]}
